assay: retest of Hck:Nef kinase inhibitor hits, confirmation, biochemical, Z-Lyte FRET, 384-well, p-Tyr peptide counterscreen (AID 463188)
applied conditions: Recombinant Hck-YEEI:Nef, Z-Lyte FRET kinase assay; measured here: p-Tyr peptide counterscreen; at 10 µM
Among all 1,300 compounds or so, about 360 (28%) were called active. A selection follows.
Provide the recorded z-score for the entries that follow.
When you answer, write just the number.

Q: Complete the entry with z-score for N#Cc1c(-c2cccs2)nc(SCC(=O)c2ccc(Br)cc2)[nH]c1=O
A: -2.14

Q: Complete the entry with z-score for Cc1cccn2c(=O)c3cc(C#N)c(=O)n(CCCN4CCOCC4)c3nc12
A: 248

Q: Complete the entry with z-score for Cc1ncc(CC(=O)n2cc(C(=O)c3cc(Cl)ccc3O)cn2)s1
A: -1.16

Q: Complete the entry with z-score for COC(=O)C1=CN(Cc2ccc(OC)c(OC)c2)C=C(C(=O)OC)C1c1cccs1
A: 22.9

Q: Complete the entry with z-score for CCn1c(=N)c(C(=O)NCCCOC)cc2c(=O)n3cccc(C)c3nc21
A: 192

Q: Complete the entry with z-score for Cc1ccc(S(=O)(=O)c2c(N)n(C)c3nc4ccccc4nc23)cc1
A: 15.1

Q: Complete the entry with z-score for COC(=O)c1ccc(OCC(O)CN(CCO)CC(O)Cn2ccc3ccccc32)cc1 (centres undefined)
A: 3.64

Q: Complete the entry with z-score for Cc1ccc(/C=C/C(=O)Nc2ccc([N+](=O)[O-])c(NC(=O)/C=C/c3ccc(C)o3)c2)o1
A: -2.13

Q: Complete the entry with z-score for CC(C)n1cnc2c(Nc3cccc(Cl)c3)nc(N(CCO)CCCO)nc21
A: -1.42

Q: Complete the entry with z-score for Clc1ccc2c(c1)C1=C(C(c3ccncc3)O2)C(c2ccc(Br)cc2)n2ncnc2N1 (centres undefined)
A: 1.34

Q: Complete the entry with z-score for COC/C=C/C1=CC2=CC(=O)C(C)(OC(=O)CCC(=O)OC)C(=O)C2=CO1 (centres undefined)
A: -0.884

Q: Complete the entry with z-score for COc1cccc(CNC(=O)CCC2CCCN(Cc3ccc(OC(F)F)cc3)C2)c1 (centres undefined)
A: 0.273

Q: Complete the entry with z-score for COc1cccc(C(=O)c2cc3ccc(O)cc3oc2=O)c1
A: 51.8

Q: Complete the entry with z-score for CCOc1ccccc1C1C(C(=O)OC)=CN(C)C=C1C(=O)OC
A: 41.6

Q: Complete the entry with z-score for CN(CC(=O)Nc1cccc(F)c1)CC(=O)Nc1cccc([N+](=O)[O-])c1
A: -0.0694

Q: Complete the entry with z-score for O=C(CSc1cccc2cccnc12)N/N=C/c1cccnc1
A: -0.0644

Q: Complete the entry with z-score for CC(=O)Oc1ccc2c(C)c(CC(C)O)c(=O)oc2c1 (centres undefined)
A: 122

Q: Complete the entry with z-score for O=C(Cc1ccccc1)Nc1cccc(C(=O)N/N=C/c2ccco2)c1
A: -0.994

Q: Complete the entry with z-score for COc1ccc(N=Cc2c(O)[nH]c3ccccc23)cc1OC
A: 2.53

Q: Complete the entry with z-score for O=C(Nc1ccncc1)c1cc(-c2ccccn2)nc2ccc(Br)cc12
A: 0.0526

Q: Complete the entry with z-score for Cc1ccc(SC(CC(=O)c2ccc(C(C)(C)C)cc2)C(=O)O)cc1 (centres undefined)
A: -0.516

Q: Complete the entry with z-score for O=[N+]([O-])c1cc(Cl)cc(/C=N/NC(=S)Nc2cc(S(=O)(=O)N3CCOCC3)ccc2Cl)c1O
A: -0.299

Q: Complete the entry with z-score for O=C(NNC(=O)c1csc(-c2cccnc2)n1)Nc1ccc(Cl)cc1
A: -0.478

Q: Complete the entry with z-score for CC(C)(C)OC(=O)NCCCCCC(=O)N/N=C/c1coc2ccccc2c1=O
A: -0.798

###

experimental system: Tyrosine-protein kinase HCK (Homo sapiens) (UniProt P08631)
Sequence (P08631 whole entry, looked up): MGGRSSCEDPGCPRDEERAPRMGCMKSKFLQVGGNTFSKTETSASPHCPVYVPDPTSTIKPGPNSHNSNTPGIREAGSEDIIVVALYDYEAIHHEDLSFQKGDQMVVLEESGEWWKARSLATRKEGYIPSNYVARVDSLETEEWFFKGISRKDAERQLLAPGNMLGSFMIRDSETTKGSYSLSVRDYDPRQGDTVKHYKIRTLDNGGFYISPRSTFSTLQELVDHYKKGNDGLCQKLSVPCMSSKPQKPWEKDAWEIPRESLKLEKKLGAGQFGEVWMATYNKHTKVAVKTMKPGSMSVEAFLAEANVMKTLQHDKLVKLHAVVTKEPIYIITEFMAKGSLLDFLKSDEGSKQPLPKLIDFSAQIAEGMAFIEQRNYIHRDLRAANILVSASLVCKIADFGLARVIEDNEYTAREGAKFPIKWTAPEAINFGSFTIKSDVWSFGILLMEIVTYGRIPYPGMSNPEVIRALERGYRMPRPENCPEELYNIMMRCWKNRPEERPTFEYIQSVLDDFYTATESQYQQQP
assay: retest of Hck:Nef kinase inhibitor hits, confirmation, biochemical, Z-Lyte FRET, 384-well, p-Tyr peptide counterscreen (AID 463188)
applied conditions: Recombinant Hck-YEEI:Nef, Z-Lyte FRET kinase assay; at 10 µM
Screen size: about 1,300 compounds; about 360 (28%) were called active.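 How the source made its calls: active means average inhibition of at least 50%, with Z-scores no higher than 3 in both the phospho-tyrosine peptide and fluorescence counterscreens; inactive means the rest.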 These entries were drawn from the full list.
Choose the fitting class; nothing outside active, inactive is accepted.

Q: Please state the recorded outcome for this compound: CC(C)n1cnc2c(Nc3cccc(Cl)c3)nc(N(CCO)CCCO)nc21
A: active

Q: Please state the recorded outcome for this compound: COc1ccc(C(=O)n2nc(-c3ccc(Cl)cc3)nc2N)cc1OC
A: inactive

Q: Please state the recorded outcome for this compound: O=C(O)CCn1cc(/C=C/C(=O)c2ccc(Cl)cc2)c(-c2cccc(Br)c2)n1
A: inactive

Q: Please state the recorded outcome for this compound: O=C1Oc2ccccc2C(=O)/C1=C/c1ccccc1O
A: inactive

Q: Please state the recorded outcome for this compound: CCn1c(=O)c2cc(C(=O)Nc3cccc(C(C)=O)c3)sc2c2ccccc21
A: inactive

Q: Please state the recorded outcome for this compound: Cc1cc(OC(=O)c2ccccc2Cl)ccc1N1C(=O)CCC1=O
A: inactive

Q: Please state the recorded outcome for this compound: O=C(NCc1ccccc1)C1CCCN(c2nc3ccsc3c(=O)s2)C1 (stereo not drawn)
A: inactive

Q: Please state the recorded outcome for this compound: O=C(Cc1ccccc1)Nc1cccc(C(=O)N/N=C/c2ccco2)c1
A: inactive
